- System: HCC 2998
- experiment: NCI tumour cell line growth inhibition, 48 h
The source made the active and inactive calls. Cut-off read from the data, not from the text of the source: active = GI50 up to about 1.1 µM and inactive = higher.
Record form. Attribute: GI50. Fill in for each entry.

Here is how some compounds turned out for GI50.
# compound, GI50
measured = [
    ("COc1ccc2[nH]cc(/C=C(/C)c3ccncc3)c2c1", "8.24 µM (inactive)"),
    ("N#C/C(=C\\c1ccc(O)cc1)C(N)=O", "> 100 µM (inactive)"),
    ("Cn1c(-c2ccc[se]2)ccc1-c1ccc(C=O)[se]1", "2.47 µM (inactive)"),
    ("Cc1ccc(C(=O)CCl)o1", "> 10 µM (inactive)"),
    ("COC(=O)C(=O)C(C(C)=O)C(=O)NCc1ccccc1 (configuration not stated)", "> 100 µM (inactive)"),
]

Below is a list of compounds. For each, state its recorded GI50.
1. CC1=NN(c2ccccc2)C(=O)C1=C1SCCS1
2. NC(=O)c1cc2ccc(O)cc2o/c1=N/NC(=O)c1ccccc1
3. CCOC(=O)C1(Cc2ccc3ccccc3c2)CCCCCN1 (configuration not stated)
4. CN(Cc1cnc2nc(N)nc(N)c2n1)c1ccc(C(=O)NC(CCC(=O)O)C(=O)O)cc1 (configuration not stated)
5. CC1CN1c1c(C(=O)/C=C/c2ccc(Cl)cc2)c(-c2ccccc2)nn(C)c1=O (configuration not stated)

1: > 87.1 µM (inactive); 2: 33.4 µM (inactive); 3: 19.1 µM (inactive); 4: 41.5 µM (inactive); 5: 1.99 µM (inactive)

Below is a list of compounds. For each, state its recorded GI50.
1. CC(C)(C)OC(=O)N1C(C2=COc3ccccc3O2)=COc2cccnc21
2. Clc1ccc(/C=N/C23CC4CC(CC(C4)C2)C3)cc1Cl

1: 1.69 µM (inactive); 2: > 10 µM (inactive)

###

- System: NCI-H23
- experiment: NCI tumour cell line growth inhibition, 48 h
Activity calls are given as the source filed them. Cut-off read from the data, not from the text of the source: active = GI50 up to about 1.1 µM and inactive = higher.
metricName: GI50

Here is how some molecules turned out for GI50.
# molecule, GI50
measured = [
    ("O=C1Nc2ccccc2/C1=N/Nc1ccc([N+](=O)[O-])cc1", "21.5 µM (inactive)"),
    ("C=CCCn1nc(-c2ccccc2)oc1=O", "> 100 µM (inactive)"),
    ("O=c1o[nH]/c(=N/c2ccccc2)n1-c1ccccc1", "> 100 µM (inactive)"),
    ("CCCCON1C[C@@H](O)C(O)[C@@H](O)C1 (stereo partly drawn)", "> 100 µM (inactive)"),
    ("COc1ccc(C(=O)Oc2c(C#N)sc3c2c(=O)n(-c2ccccc2)c(=S)n3-c2ccccc2)cc1", "20.3 µM (inactive)"),
    ("CC(=O)OC12c3ccccc3-c3ccccc3C1C1C(=O)OC(=O)C12 (stereo not drawn)", "> 10 µM (inactive)"),
    ("Cc1ccc(Oc2ccc(C)cc2N)cc1", "94.4 µM (inactive)"),
    ("Cc1ccc(C)c2c1n1c(=O)n(C)c(=O)n21", "> 100 µM (inactive)"),
]

Below is a list of molecules. For each, state its recorded GI50.
1. COC(=O)C(=O)C(C(C)=O)C(=O)NCc1ccccc1 (stereo not drawn)
2. CC(=C(C(N)=O)C(N)=O)C1C=C(c2cccs2)CC(c2ccc(Cl)cc2)=C1O (stereo not drawn)
3. CC1=C[C@]2(O)C(=O)[C@H](C)C[C@H]3[C@@H](CC[C@@](C)(O)/C=C\2C1=O)C3(C)C

["> 100 µM (inactive)", "> 100 µM (inactive)", "25.6 µM (inactive)"]

Below is a list of molecules. For each, state its recorded GI50.
1. COc1cccc(C2c3cc4c(cc3OC(N3CCCC3)C2C)OCO4)c1 (stereo not drawn)
2. Cc1cc(C)nc(NS(=O)(=O)c2ccc(Nc3c4ccccc4nc4c(C(=O)Nc5ccc(S(=O)(=O)Nc6cc(C)on6)cc5)cccc34)cc2)n1
3. O=C(Cc1ccccc1)NCCc1ccc(O)c(O)c1
4. COc1ccc2c3c([nH]c2c1)CCN(CCCC(=O)c1ccc(F)cc1)C3
5. CCC1CN2CCC3(c4ccccc4)CC(C(=O)OC)=CC1C23 (stereo not drawn)
6. N#C/C(=C\c1ccc(O)cc1)C(N)=O

1: 22.8 µM (inactive); 2: 22.1 µM (inactive); 3: 52.6 µM (inactive); 4: 19.4 µM (inactive); 5: 15.4 µM (inactive); 6: > 100 µM (inactive)

Below is a list of molecules. For each, state its recorded GI50.
1. CCOC(=O)c1c(NC(=S)Nc2ccc(C)cc2)sc2c1CCN(C)C2
2. CN(c1ccccc1)c1c(Cl)c(=O)oc2c1ccc1occc12
3. CN(NC(=O)c1ccco1)C1=NCCN1
4. CCc1cccc(C(C)CC)c1NC(=O)C(=O)Cc1nc2ccccc2o1 (stereo not drawn)

1. > 100 µM (inactive)
2. > 100 µM (inactive)
3. > 100 µM (inactive)
4. > 50 µM (inactive)

Below is a list of molecules. For each, state its recorded GI50.
1. CCN1CCCCCCCCCC(=N/O)/C(=N\O)C1
2. COc1cc(N(C)C)c(OC)cc1/C=C\c1ccnc2ccccc12

1: > 100 µM (inactive); 2: 3.86 µM (inactive)

###

- Test system: COLO 205
- experiment: NCI tumour cell line growth inhibition, 48 h
Activity calls are given as the source filed them. Rule as the data show it: active = GI50 up to about 1.1 µM and inactive = higher.
Choose the fitting class; nothing outside class 1 (active), class 0 (inactive) is accepted.

Solved cases below.
# compound, labelValue
rows = [
    ("CCCc1cc(-c2ccc(-c3cc(CCC)c(C=O)[nH]3)s2)[nH]c1C=O", "class 0"),
    ("COCCOCCOC1=C(Cl)C(=O)c2c(O)ccc(O)c2C1=O", "class 1"),
    ("CC(=O)N1C=Cc2c(c(C)c3c([nH]c4ccccc43)c2C)C1", "class 0"),
    ("CC1=CC(=O)c2ccccc2C1=O [MENADIONE]", "class 0"),
    ("CSc1nc(N)c(NC2OC(CO)C(O)C2O)c(=O)[nH]1 (stereo unspecified)", "class 0"),
]

Could you please tell me the result logged for CC1(C)OCC(C2OC3OC(C)(C)OC3C2c2ccccc2)O1 (stereo unspecified) in this assay?
class 0

###

- Test system: LOX IMVI
- experiment: NCI tumour cell line growth inhibition, 48 h
Calls of active or inactive are those of the source. Rule as the data show it: active = GI50 up to about 1.1 µM and inactive = higher.
metricName: GI50

Here is how some compounds turned out for GI50.
# compound, reportedValue
data = [
    ("CC(=C(C(N)=O)C(N)=O)C1C=C(c2cccs2)CC(c2ccc(Cl)cc2)=C1O (stereo not given)", "19.8 µM (inactive)"),
    ("CCCCON1C[C@@H](O)C(O)[C@@H](O)C1 (stereo not given in full)", "> 100 µM (inactive)"),
    ("CO[C@@]12C[C@@H](C)C3=CCC(C)=C3CC1=C(C)C(=O)O2", "> 100 µM (inactive)"),
    ("C/C=C(\\C)C(=O)O[C@@H]1CC(C)(C)CC2C3=CCC4[C@]56CC[C@](O)(OC5)C(C)(C)C6CC[C@@]4(C)C3(C)CC[C@]21C(=O)O (stereo not given in full)", "25.9 µM (inactive)"),
    ("CC1(c2ccc(F)cc2)C2C(=O)NC(=O)C1C(=O)NC2=O (stereo not given)", "> 100 µM (inactive)"),
]

Below is a list of compounds. For each, state its recorded GI50.
1. C(=N\c1ccc(-c2cc(-c3ccccc3)nc3ccc4ccccc4c23)cc1)/c1ccccc1
2. OCC12C=CC(C1)c1ccccc12 (stereo not given)
3. Cc1ccc(Oc2ccc(C)cc2N)cc1
4. Nc1ccc(OCC(O)N2C(=O)c3ccccc3C2=O)cc1 (stereo not given)
5. CCCCCCSC[C@H](OC(C)=O)[C@@H](OC(C)=O)[C@@H](OC(C)=O)[C@@H](COC(C)=O)OC(C)=O

["19.9 µM (inactive)", "> 100 µM (inactive)", "> 100 µM (inactive)", "> 100 µM (inactive)", "> 100 µM (inactive)"]

###

- Tested on: PC-3
- experiment: NCI tumour cell line growth inhibition, 48 h
The source made the active and inactive calls. Cut-off read from the data, not from the text of the source: active = GI50 up to about 1.1 µM and inactive = higher.
metricName: GI50

Here is how some compounds turned out for GI50.
# compound, reportedValue
records = [
    ("O=C1c2c(ccc3c2CCCC3)CC1Cc1ccc2c(c1)CCCC2 (stereo unspecified)", "45.5 µM (inactive)"),
    ("O=C1C(S(=O)(=O)c2ccccc2)=C(CS(=O)(=O)c2ccccc2)[C@@H](OCc2ccccc2)[C@@H]1OCc1ccccc1", "25.8 µM (inactive)"),
    ("CCN(CC)Cc1sc2nc3ccccc3n2c1-c1ccc(OC)cc1", "17.4 µM (inactive)"),
    ("O=C(O)Cn1ccnc1[N+](=O)[O-]", "> 100 µM (inactive)"),
    ("C/C(=N/NC(=S)N(C)C)c1ccccc1O", "10.1 µM (inactive)"),
    ("CC(C)(C)OC(=O)N1CCC23CCCC2C(=O)CC=C13 (stereo unspecified)", "> 100 µM (inactive)"),
]

Below is a list of compounds. For each, state its recorded GI50.
1. CC(=O)N1C=Cc2c(c(C)c3c([nH]c4ccccc43)c2C)C1
2. O=c1[nH]nc(Cc2ccccc2)n1/N=C/c1ccc([N+](=O)[O-])cc1
3. CC(=O)c1cc2ccccc2[n+]([O-])c1N
4. CC(C)(C)C=C=C(C(C)(C)C)P(=O)(O)O
5. CC(=O)/C(=N\N=C(N)N)c1ccccc1

1: 4.95 µM (inactive); 2: > 100 µM (inactive); 3: > 100 µM (inactive); 4: > 100 µM (inactive); 5: > 100 µM (inactive)
